Data credit: PubChem BioAssay

# measurement.protocol: RAM signaling pathway blockade in yeast – S. cerevisiae, Pdr1DBD-CYC8 efflux-inhibited sensitized strain, primary screen (AID 1298);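 also: 0% = DMSO untreated cells without growth and 100% = 10 µM 1-NA-PP1 full growth; higher means more yeast growth rescued from 5-FOA killing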
# particulars: S. cerevisiae cbk1-as DSE1-URA3 strain, 5-FOA growth OD615, 2 d; at 50 µM; hits give high values
measured.parameter: RAM network inhibition (%)
One number for each entry, in %.

Kindly give each listed record's RAM network inhibition.
1. CCOc1ccc(Br)cc1/C=N/O
2. COc1ccc(C2C(C(=O)NCCN(C)C)c3cc(OC)c(OC)cc3C(=O)N2C)cc1OC (configuration not stated)
3. Cc1ccc(/C=N/c2sc3c(c2C#N)CCC3)s1
4. Cc1nn(CCCC(=O)N2CCc3ccccc3C2)c(=O)c2cc3sccc3n12
5. COc1ccc(C(=S)N(C)C)cc1OC
6. CCOC(=O)CCSCC(=O)Nc1nnc(C)s1
7. COc1cc(OC)cc(-c2nc(-c3ccc(Br)cc3)no2)c1

Outgoing:
[-0.16, 3.25, 7, 0.42, 1.53, 3.07, 8.01]

I would be grateful if you could provide RAM network inhibition for each of the following entries.
1. CC(=O)C1=C(C)NC(=O)NC1c1ccccc1 (configuration not stated)
2. COC(=O)c1cn(C(C)C(=O)NCc2ccco2)c2ccccc12 (configuration not stated)

Outgoing:
[5.38, 2.95]

Okay, here is my list. What is RAM network inhibition for each of these?
1. CCOc1cccc(C2c3c(oc4ccccc4c3=O)C(=O)N2c2ccccn2)c1 (configuration not stated)
2. COc1ccc(NC2c3ccccc3C(=O)N2c2cccnc2)cc1Cl (configuration not stated)
3. CCC(C)NC(=O)C1CCC(=O)N(c2ccc3c(c2)OCO3)C1c1ccc(OC)cc1 (configuration not stated)

Outgoing:
1: 2.56; 2: 0.67; 3: 4.2
